# experimental_target: recombinant human 5-HT5A receptor (Homo sapiens)
# Construct: membranes
# Sequence (P47898 whole entry): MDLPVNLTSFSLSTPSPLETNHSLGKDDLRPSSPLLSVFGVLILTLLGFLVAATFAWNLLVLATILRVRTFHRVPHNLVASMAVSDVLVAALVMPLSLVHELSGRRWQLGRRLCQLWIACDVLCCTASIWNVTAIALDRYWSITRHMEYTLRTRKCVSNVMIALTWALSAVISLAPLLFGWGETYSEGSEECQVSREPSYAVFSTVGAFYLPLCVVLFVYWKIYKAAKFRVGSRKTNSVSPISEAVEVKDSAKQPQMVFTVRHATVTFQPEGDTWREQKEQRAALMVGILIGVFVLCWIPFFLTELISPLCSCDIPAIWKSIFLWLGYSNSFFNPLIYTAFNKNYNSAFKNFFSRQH
# experiment_description: [3H]LSD radioligand binding assay
# settings: [3H]LSD (approximately 1 nM); membranes from transiently expressed 5-HT5A receptors in HEK-EBNA cells; Ki by Cheng-Prussoff equation
pKi: −log10 of the molar value.
measured_property: pKi

Clc1cccc2c1CNC(NCCOc1ccccc1)=N2 [Example 9, hydroiodide] = 7.28
FC(F)(F)Oc1ccccc1OCCNC1=Nc2ccccc2CN1 [Example 13] = 7.14
COc1ccccc1OCCNC1=Nc2ccc(F)cc2CN1 [Example 29] = 7.70
c1ccc(COc2ccccc2OCCNC2=Nc3ccccc3CN2)cc1 [Example 39] = 7.06
COc1ccc2c(c1)CNC(NCCOc1ccccc1Cl)=N2 [Example 56] = 7.08

a = COc1ccc2c(c1)CNC(NCCOc1ccccc1)=N2 [Example 15]
b = c1ccc(OCCNC2=Nc3ccccc3CN2)cc1 [Example 5, hydroiodide]
c = COc1ccccc1OCCNC1=Nc2cccc(F)c2CN1 [Example 67]
Ask: List items by pKi in falling order. Provide your answer as the labels ordered per the instruction.
Reply: c, b, a
(c: 7.63, b: 7.38, a: 7.12)

1 = COc1ccc2c(c1)CNC(NCCOc1ccccc1OC)=N2 [Example 62]
2 = Fc1ccc2c(c1)CNC(NCCOc1ccccc1)=N2 [Example 2]
Ask: Which value of pKi is numerically greater: that of 1 or that of 2 ? I would appreciate it if you answered with the label of your choice.
Reply: 2
